# pKi per record follows
target_entity: cloned muscarinic - M1 binding site (Homo sapiens)
Construct: expressed in transfected cells; host or cells: CHO cells
Sequence (P11229 whole entry): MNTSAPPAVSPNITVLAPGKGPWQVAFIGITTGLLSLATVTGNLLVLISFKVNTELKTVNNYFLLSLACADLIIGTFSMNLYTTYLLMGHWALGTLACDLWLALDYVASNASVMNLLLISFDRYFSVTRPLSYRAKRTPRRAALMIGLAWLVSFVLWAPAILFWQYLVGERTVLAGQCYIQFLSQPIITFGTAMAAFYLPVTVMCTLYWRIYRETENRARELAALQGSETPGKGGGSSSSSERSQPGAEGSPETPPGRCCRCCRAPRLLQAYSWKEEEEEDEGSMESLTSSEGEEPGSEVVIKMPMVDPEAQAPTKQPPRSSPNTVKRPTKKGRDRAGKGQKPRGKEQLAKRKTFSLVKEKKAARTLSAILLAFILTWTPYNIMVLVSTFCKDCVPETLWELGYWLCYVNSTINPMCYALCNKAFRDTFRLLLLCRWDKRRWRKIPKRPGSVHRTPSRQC
experimental_details: Muscarinic M1 binding assay, [3H]-Scopolamine N-Methyl Chloride, human recombinant expressed in CHO cells
reported_conditions: Series 11 compounds, Table 5; unit inferred; receptor source not given; read-out: M1 Ki
Remember, pKi is on a log scale: it is -log10 of the molar concentration.

get_value(item= CC(C)OC(=O)CCN1CCC(=C(c2ccccc2)c2ccccc2)CC1 [Compound 11d] , readout=pKi) returns 6.16

----------
# pIC50 per record follows
target_entity: cloned muscarinic - M3 binding site (Homo sapiens)
Sequence (P20309 whole entry): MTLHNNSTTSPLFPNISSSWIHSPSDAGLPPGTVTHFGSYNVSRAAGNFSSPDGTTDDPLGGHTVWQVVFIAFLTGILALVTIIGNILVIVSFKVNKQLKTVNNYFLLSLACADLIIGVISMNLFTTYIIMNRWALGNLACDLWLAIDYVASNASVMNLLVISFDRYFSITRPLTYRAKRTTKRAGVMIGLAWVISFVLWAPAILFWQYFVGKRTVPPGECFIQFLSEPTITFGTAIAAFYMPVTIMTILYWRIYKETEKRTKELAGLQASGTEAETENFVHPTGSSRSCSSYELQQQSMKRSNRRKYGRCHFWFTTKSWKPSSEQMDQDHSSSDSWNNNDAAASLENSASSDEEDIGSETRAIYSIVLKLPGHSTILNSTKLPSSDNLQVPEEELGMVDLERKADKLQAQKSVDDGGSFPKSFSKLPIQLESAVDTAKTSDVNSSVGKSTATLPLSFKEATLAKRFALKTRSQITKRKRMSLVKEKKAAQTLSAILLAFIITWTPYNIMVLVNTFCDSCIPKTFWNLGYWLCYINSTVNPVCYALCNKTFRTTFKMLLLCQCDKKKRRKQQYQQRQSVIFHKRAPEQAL
experimental_details: Muscarinic M3 binding assay, [3H]-Scopolamine N-Methyl Chloride, human recombinant expressed in CHO cells
reported_conditions: Series 11 compounds, Table 5; unit inferred; receptor source not given
Remember, pIC50 is on a log scale: it is -log10 of the molar concentration.

- O=C(CCN1CCC(=C(c2ccccc2)c2ccccc2)CC1)OC1CCOCC1 [Compound 11i]: 5.63
- CC(C)OC(=O)CCN1CCC(=C(c2ccccc2)c2ccccc2)CC1 [Compound 11d]: 5.22
- O=C(CCN1CCC(=C(c2ccccc2)c2ccccc2)CC1)OC1CCOC1 (centres unmarked) [Compound 11h]: 5.66

get_value(item= CC(C)COC(=O)CCN1CCC(=C(c2ccccc2)c2ccccc2)CC1 [Compound 11e] , readout=pIC50) returns 5.59
